Target under test: Integrin alpha-V/beta-3 (Homo sapiens, UniProt P05106+P06756)
Sequence (P05106 27-788 limits assumed): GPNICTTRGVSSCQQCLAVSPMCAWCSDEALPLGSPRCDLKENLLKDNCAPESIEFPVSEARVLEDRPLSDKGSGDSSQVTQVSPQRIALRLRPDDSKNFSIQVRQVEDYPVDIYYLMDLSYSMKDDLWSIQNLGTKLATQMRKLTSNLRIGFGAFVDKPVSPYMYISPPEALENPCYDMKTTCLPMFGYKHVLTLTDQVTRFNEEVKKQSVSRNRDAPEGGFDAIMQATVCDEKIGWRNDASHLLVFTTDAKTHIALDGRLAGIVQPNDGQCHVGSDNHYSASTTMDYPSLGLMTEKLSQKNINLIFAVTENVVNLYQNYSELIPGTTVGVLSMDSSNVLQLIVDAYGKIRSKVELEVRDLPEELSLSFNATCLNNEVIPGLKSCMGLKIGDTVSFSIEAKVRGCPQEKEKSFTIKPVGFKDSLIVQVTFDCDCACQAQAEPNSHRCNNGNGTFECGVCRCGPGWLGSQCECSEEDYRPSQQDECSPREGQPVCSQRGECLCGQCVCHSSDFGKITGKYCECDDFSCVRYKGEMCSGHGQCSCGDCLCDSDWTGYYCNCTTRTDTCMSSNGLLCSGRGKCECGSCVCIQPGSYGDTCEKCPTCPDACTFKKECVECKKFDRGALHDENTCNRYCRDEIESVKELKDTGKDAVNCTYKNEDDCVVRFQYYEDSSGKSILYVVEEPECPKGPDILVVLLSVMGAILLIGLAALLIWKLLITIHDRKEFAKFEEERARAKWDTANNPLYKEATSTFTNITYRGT
Sequence (P06756 31-889 limits assumed): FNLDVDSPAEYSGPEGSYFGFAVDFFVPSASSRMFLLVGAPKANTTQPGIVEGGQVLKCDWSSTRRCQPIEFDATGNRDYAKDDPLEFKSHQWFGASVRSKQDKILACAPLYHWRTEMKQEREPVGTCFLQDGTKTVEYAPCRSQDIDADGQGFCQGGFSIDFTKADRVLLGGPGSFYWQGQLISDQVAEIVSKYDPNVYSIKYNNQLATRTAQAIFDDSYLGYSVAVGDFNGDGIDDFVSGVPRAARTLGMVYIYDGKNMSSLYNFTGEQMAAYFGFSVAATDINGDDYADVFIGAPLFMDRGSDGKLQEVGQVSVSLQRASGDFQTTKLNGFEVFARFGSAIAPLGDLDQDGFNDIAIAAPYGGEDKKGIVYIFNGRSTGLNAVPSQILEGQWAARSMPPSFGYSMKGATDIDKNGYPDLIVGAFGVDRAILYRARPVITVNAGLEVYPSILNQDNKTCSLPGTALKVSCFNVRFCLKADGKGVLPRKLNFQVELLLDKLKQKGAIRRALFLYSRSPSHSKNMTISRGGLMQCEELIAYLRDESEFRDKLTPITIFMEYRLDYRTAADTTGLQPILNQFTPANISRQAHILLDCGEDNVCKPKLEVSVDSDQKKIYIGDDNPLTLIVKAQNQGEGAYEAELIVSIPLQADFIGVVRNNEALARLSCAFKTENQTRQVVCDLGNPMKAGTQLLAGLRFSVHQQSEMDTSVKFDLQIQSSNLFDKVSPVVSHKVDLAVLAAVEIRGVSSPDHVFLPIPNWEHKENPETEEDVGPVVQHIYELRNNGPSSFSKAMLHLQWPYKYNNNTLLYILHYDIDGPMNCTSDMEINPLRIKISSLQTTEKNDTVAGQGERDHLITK
Sequence (P06756 891-1048 limits assumed): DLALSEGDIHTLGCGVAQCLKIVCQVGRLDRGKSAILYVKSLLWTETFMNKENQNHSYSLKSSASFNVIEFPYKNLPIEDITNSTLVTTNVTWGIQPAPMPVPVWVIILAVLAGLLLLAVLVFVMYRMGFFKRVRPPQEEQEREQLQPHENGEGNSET
Protocol text: Antagonistic activity against vitronectin receptor
As shown below, each of these compounds has a reported IC50 value.
Measured attribute: IC50 (nM)

>>> print(df.to_string())
                                   compound  measured_attribute  result_number
0  N=C(N)NCCCCC1CC(C(=O)NC[C@H](NS(=O)(=O)c2ccc(F)cc2)C(=O)O)=NO1 (stereo partly drawn)                IC50             15
1  N=C(N)NCCCCC1CC(C(=O)NC[C@H](NS(=O)(=O)c2cccc3ccccc23)C(=O)O)=NO1 (stereo partly drawn)                IC50             16
2  N=C(N)NCCCCC1CC(C(=O)NC[C@H](NS(=O)(=O)c2ccccc2)C(=O)O)=NO1 (stereo partly drawn)                IC50             11
